# test summary: Clearance in CD-1 mouse at 2.5 to 10 umol/kg, iv
# Type: ADME, organism-based
# assay context: in vivo
assay endpoint: clearance (mL/min/kg)
The figure you give is taken to be in mL/min/kg; do not add the unit.

Which clearance reading was recorded for the molecule C[C@H]1COCCN1c1cc(C2(S(=O)(=O)C3CC3)CC2)nc(-c2ccc(NC(=S)NCCO)cc2)n1 ?
8

---

# test summary: Intrinsic clearance in human hepatocytes assessed per million cells
# Type: ADME, cell-based, Hepatocyte
# assay context: read-out: CLH
assay endpoint: hepatocyte CLint (µL/min/1e6 cells)
Response body: numeric value in µL/min/1e6 cells, unit text excluded.

Given C[C@H]1COCCN1c1cc(C(C)(C)S(C)(=O)=O)nc(-c2ccc(NC(=O)NC3CC3)cc2)n1 , state its recorded hepatocyte CLint.
50

If you can, please state the reported hepatocyte CLint value of C[C@H]1COCCN1c1cc(C2(S(C)(=O)=O)CC2)nc(-c2ccc(NC(=O)NC3CC3)cc2)n1 .
37.8

Query: hepatocyte CLint; subject: CNC(=O)Nc1ccc(-c2nc(N3CCOC[C@@H]3C)cc(C(C)(C)S(C)(=O)=O)n2)cc1
36.3

---

# test summary: Volume of distribution at steady state in CD-1 mouse
# Format: ADME, organism-based
# assay context: in vivo, read-out: Vdss
assay endpoint: Vd (L/kg)
Write the number in L/kg without appending the unit.

What Vd value was documented for this molecule, C[C@H]1COCCN1c1cc(C2(S(=O)(=O)C3CC3)CC2)nc(-c2ccc(NC(=S)NCCO)cc2)n1 ?
2.3

---

# test summary: Lipophilicity, log D of the compound
# Type: physicochemical
# assay context: octanol/water
So I've got a bunch of compounds here, and I need their logD values.
# answer = number (no unit)

What does the record list as logD for CCNC(=O)Nc1ccc(-c2nc(CS(C)(=O)=O)cc(N3CCOC[C@@H]3C)n2)cc1 ?
1.93

So what's the measured logD for this one? C[C@H]1COCCN1c1cc(C(C)(C)S(C)(=O)=O)nc(-c2ccc(NC(=S)NCCO)cc2)n1
2.15

Which logD value belongs to C[C@H]1COCCN1c1cc(CS(C)(=O)=O)nc(-c2ccc(NC(=O)Nc3cnn(C)c3)cc2)n1 ?
1.85

// logD lookup, key: CNC(=O)Nc1ccc(-c2nc(CS(=O)(=O)c3ccncc3)cc(N3CCOC[C@@H]3C)n2)cc1
2.1

Endpoint output: logD of C[C@H]1COCCN1c1cc(C2(S(=O)(=O)c3ccc(F)cc3)CC2)nc(-c2ccc(NC(=O)NCCO)cc2)n1 . Value?
3.01

For the compound shown here, C[C@H]1COCCN1c1cc(C2(S(C)(=O)=O)CC2)nc(-c2ccc(NC(=O)NC3CC3)cc2)n1 , give the reported logD.
2.62

Endpoint output: logD of C[C@H]1COCCN1c1cc(C2(S(C)(=O)=O)CCC2)nc(-c2ccc(NC(=O)NC3CC3)cc2)n1 . Value?
3.3

Reported logD for C[C@H]1COCCN1c1cc(CS(C)(=O)=O)nc(-c2ccc(NC(=O)NC3CC3)cc2)n1 : what is it?
1.9

Suppose we examine the compound C[C@H]1COCCN1c1cc(CS(=O)(=O)CCCO)nc(-c2ccc(NC(=O)NC3CC3)cc2)n1 ; what logD value has been reported?
1.7

Can you share its logD? I mean this compound: CNC(=O)Nc1ccc(-c2nc(CS(=O)(=O)C3CCCCC3)cc(N3CCOC[C@@H]3C)n2)cc1
3.6

Endpoint output: logD of C[C@H]1COCCN1c1cc(CS(C)(=O)=O)nc(-c2ccc(NC(=O)NCCN(C)C)cc2)n1 . Value?
0.3

Recorded logD of C[C@H]1COCCN1c1cc(C2(S(=O)(=O)C3CC3)CC2)nc(-c2ccc(NC(=S)NCCO)cc2)n1 , please.
2.1

Return reported logD; argument: CC(C)NC(=O)Nc1ccc(-c2nc(CS(C)(=O)=O)cc(N3CCOC[C@@H]3C)n2)cc1
2.45

Looking for the measured logD of CNC(=O)Nc1ccc(-c2nc(CS(C)(=O)=O)cc(N3CCOC[C@@H]3C)n2)cc1OC , can you help?
1.79

logD lookup needed for C[C@H]1COCCN1c1cc(C(C)(C)S(C)(=O)=O)nc(-c2ccc(NC(=O)NC3CC3)cc2)n1 , thanks.
2.62

Return reported logD; argument: C[C@H]1COCCN1c1cc(C2(S(C)(=O)=O)CCOCC2)nc(-c2ccc(NC(=O)NC3CC3)cc2)n1
2.8

Please report the recorded logD for C[C@H]1COCCN1c1cc(C2(S(C)(=O)=O)CCC2)nc(-c2ccc(NC(=O)NCCO)cc2)n1 .
2.4

Form field: reported logD of CNC(=O)Nc1ccc(-c2nc(CS(C)(=O)=O)cc(N3CCOC[C@@H]3C)n2)cc1
1.54

Could you share which logD value was measured for C[C@H]1COCCN1c1cc(C2(S(=O)(=O)CCCO)CC2)nc(-c2ccc(NC(=O)NC3CC3)cc2)n1 ?
2.4

Entry COc1ccc(NC(=O)Nc2ccc(-c3nc(CS(C)(=O)=O)cc(N4CCOC[C@@H]4C)n3)cc2)cc1 : reported logD = ?
2.88

Could you share which logD value was measured for C[C@H]1COCCN1c1cc(C2(S(=O)(=O)c3ccccc3)CC2)nc(-c2ccc(NC(=O)NCCO)cc2)n1 ?
2.8

What logD value was documented for this compound, C[C@H]1COCCN1c1cc(CS(C)(=O)=O)nc(-c2ccc(NC(=O)NCCO)cc2)n1 ?
1

I have this compound here, C[C@H]1COCCN1c1cc(C2(S(=O)(=O)CCCO)CC2)nc(-c2ccc(NC(=S)NCCO)cc2)n1 , and I need its recorded logD.
1.6

Fill blank: measured logD of the compound C[C@H]1COCCN1c1cc(CS(C)(=O)=O)nc(-c2ccc(NC(=S)NC3CC3)cc2)n1 is ____.
1.74

Form field: reported logD of C[C@H]1COCCN1c1cc(CS(C)(=O)=O)nc(-c2ccc(NC(=O)Nc3ccccc3)cc2)n1
3.3

# input compound: CNC(=O)Nc1ccc(-c2nc(CS(=O)(=O)C3CC3)cc(N3CCOC[C@@H]3C)n2)cc1 ; wanted: its logD
2

I am curious: what logD value has been reported for C[C@H]1COCCN1c1cc(C2(S(C)(=O)=O)CC2)nc(-c2ccc(NC(=S)NCCO)cc2)n1 ?
1.78

I have this compound here, CNC(=O)Nc1ccc(-c2nc(CS(C)(=O)=O)cc(N3CCOC[C@@H]3C)n2)cc1C , and I need its recorded logD.
1.5

---

# test summary: Volume of distribution at steady state in Beagle dog
# Assay type: ADME, organism-based, Canis lupus familiaris
# assay context: in vivo, read-out: Vdss
assay endpoint: Vd (L/kg)
Answer in L/kg, number only, no unit symbol.

Value lookup for Vd; key = C[C@H]1COCCN1c1cc(C2(S(=O)(=O)C3CC3)CC2)nc(-c2ccc(NC(=S)NCCO)cc2)n1
2

---

# test summary: Clearance in Beagle dog at 1 to 3 umol/kg, iv
# Format: ADME, organism-based, Canis lupus familiaris
# assay context: in vivo
assay endpoint: clearance
For clarity, give the value followed by its unit.

What value of measured clearance is listed for C[C@H]1COCCN1c1cc(C2(S(=O)(=O)C3CC3)CC2)nc(-c2ccc(NC(=S)NCCO)cc2)n1 ?
16 mL/min/kg
